Reference for the values: patent US8841456B2

- tgt: human PI3Kα protein (Homo sapiens, UniProt P42336)
- Construct: purchased Carna Biosciences, Inc; host or cells: Baculovirus expression system
- Sequence (P42336 whole entry): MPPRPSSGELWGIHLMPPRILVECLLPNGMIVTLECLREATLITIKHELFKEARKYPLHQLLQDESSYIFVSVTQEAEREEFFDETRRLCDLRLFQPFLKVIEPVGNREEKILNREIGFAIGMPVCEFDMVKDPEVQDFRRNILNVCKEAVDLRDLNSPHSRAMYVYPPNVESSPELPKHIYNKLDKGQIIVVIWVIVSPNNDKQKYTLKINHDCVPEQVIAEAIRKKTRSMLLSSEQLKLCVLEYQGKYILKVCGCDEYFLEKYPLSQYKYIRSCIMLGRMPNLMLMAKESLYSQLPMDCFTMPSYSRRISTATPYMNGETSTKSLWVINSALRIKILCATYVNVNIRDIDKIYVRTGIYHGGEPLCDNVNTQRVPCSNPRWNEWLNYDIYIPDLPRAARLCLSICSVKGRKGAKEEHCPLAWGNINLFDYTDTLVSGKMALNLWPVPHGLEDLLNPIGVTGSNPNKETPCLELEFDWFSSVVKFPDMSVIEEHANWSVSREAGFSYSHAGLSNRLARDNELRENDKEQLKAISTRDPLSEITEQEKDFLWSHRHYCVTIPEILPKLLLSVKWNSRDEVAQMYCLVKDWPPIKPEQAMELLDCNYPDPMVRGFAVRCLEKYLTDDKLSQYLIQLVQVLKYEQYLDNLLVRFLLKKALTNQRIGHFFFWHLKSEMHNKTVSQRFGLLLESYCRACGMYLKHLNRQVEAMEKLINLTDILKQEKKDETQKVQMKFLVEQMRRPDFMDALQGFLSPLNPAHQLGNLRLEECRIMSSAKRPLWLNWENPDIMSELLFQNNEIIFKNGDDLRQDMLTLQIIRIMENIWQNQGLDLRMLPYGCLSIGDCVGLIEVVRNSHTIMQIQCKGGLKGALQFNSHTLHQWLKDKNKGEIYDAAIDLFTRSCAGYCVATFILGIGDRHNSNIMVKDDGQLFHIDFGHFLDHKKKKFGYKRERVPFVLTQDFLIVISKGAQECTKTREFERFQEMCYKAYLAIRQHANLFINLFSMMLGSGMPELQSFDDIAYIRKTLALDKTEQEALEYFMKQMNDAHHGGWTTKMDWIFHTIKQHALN
- Sequence (P27986 whole entry partner): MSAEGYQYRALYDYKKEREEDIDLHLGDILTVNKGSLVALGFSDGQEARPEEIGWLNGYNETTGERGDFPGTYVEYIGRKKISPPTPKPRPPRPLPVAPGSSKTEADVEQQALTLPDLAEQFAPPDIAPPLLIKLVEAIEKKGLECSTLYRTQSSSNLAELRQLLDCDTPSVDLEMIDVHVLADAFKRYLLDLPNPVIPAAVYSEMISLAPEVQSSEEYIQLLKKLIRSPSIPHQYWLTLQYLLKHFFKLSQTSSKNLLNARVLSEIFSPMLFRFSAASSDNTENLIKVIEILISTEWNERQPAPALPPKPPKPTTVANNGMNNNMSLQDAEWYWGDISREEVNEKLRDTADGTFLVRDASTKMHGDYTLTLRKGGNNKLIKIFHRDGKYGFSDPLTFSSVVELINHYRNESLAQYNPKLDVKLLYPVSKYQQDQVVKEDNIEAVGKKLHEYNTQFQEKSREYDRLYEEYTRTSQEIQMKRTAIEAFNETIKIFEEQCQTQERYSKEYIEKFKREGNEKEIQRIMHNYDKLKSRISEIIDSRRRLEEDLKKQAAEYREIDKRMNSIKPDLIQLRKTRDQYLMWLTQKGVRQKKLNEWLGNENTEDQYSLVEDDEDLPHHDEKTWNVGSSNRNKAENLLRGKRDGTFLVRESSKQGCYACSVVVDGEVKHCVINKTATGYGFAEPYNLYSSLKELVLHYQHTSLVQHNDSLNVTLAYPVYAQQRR
- test-description: PI3Kα enzyme assay (ADP-Glo kinase assay)
- Type: biochemical
- assay-context: IC50 class; 3 nM PI3Kα, 50 μM PIP2, 100 μM ATP; read-out: PI3Kα Inhibitory Activity
result-type: IC50

Sample records with IC50:
* COc1cc(-c2cnc3ccc(NC(=O)NC4CCCC4)nc3c2)cnc1OC | 100 to 1000 nM
* O=C(Nc1ccc2ncc(-c3cnn(CCCN4CC[C@H](F)C4)c3)cc2n1)NC1CCCC1 | < 100 nM
* O=C(Nc1ccc2ncc(-c3cn[nH]c3)cc2n1)N[C@@H]1CCC[C@H]1OCc1ccccc1 | 1000 to 10000 nM
* S=C(Nc1ccc2ncc(-c3cnn(CCN4CCNCC4)c3)cc2n1)NC1CCCC1 | < 100 nM
* O=C(Nc1ccc2ncc(-c3cnn(CCCN4CCOCC4)c3)cc2n1)N[C@@H]1CCN(Cc2ccccc2)C1 | 100 to 1000 nM

IN: Look up IC50: O=C(NCCO)Nc1ccc2ncc(-c3cn[nH]c3)cc2n1
OUT: 1000 to 10000 nM

IN: Sample O=C(Nc1ccc2ncc(-c3cn[nH]c3)cc2n1)N[C@H]1CCC[C@@H]1OCc1ccccc1 — what was its IC50?
OUT: < 100 nM

IN: What does the data say about its IC50? Entry: COCCN(CCOC)CCn1cc(-c2cnc3ccc(NC(=O)NC4CCCC4)nc3c2)cn1
OUT: < 100 nM

IN: Quick check: IC50 of C[C@@H](NC(=O)Nc1ccc2ncc(-c3cn[nH]c3)cc2n1)c1ccccc1 ?
OUT: 100 to 1000 nM

IN: Look at this molecule and give its reported IC50. O=C(Nc1ccc2ncc(-c3cnn(CCCN4CCOCC4)c3)cc2n1)N[C@H]1CCN(Cc2ccccc2)C1
OUT: 100 to 1000 nM

IN: Entry O=C(NCCOCc1ccccc1)Nc1ccc2ncc(-c3cn[nH]c3)cc2n1 : reported IC50 = ?
OUT: 100 to 1000 nM

IN: Would you kindly share the measured IC50 for CN(C)CCCn1cc(-c2cnc3ccc(NC(=O)NC4(C)CCCC4)nc3c2)cn1 ?
OUT: < 100 nM

IN: Param item = C[C@H](C[C@@H](C)Oc1ccccc1)NC(=O)Nc1ccc2ncc(-c3cn[nH]c3)cc2n1 ; retrieve measured IC50.
OUT: 100 to 1000 nM

IN: What value of IC50 has been recorded for this entry: O=C(NC[C@@H]1CCCO1)Nc1ccc2ncc(-c3cn[nH]c3)cc2n1
OUT: 100 to 1000 nM

IN: Look up IC50: CCN(CC)CCn1cc(-c2cnc3ccc(NC(=O)NC4CCCC4)nc3c2)cn1
OUT: < 100 nM

IN: Any idea what IC50 was measured for O=C(Nc1ccc2ncc(N3CC(O)C3)cc2n1)NC1CCCC1 ?
OUT: < 100 nM

IN: I am curious: what IC50 value has been reported for COc1ccc(Nc2cnc3ccc(NC(=O)NC4CCCC4)nc3c2)cc1OC ?
OUT: < 100 nM

IN: Given the entry CC(C)N1CCC(n2cc(-c3cnc4ccc(NC(=O)NC5CCCC5)nc4c3)cn2)CC1 , report its measured IC50.
OUT: < 100 nM

IN: Sample O=C(NCC1CCCCC1)Nc1ccc2ncc(-c3cn[nH]c3)cc2n1 — what was its IC50?
OUT: 100 to 1000 nM

IN: Please give the measured IC50 for this molecule: COCCNC(=O)Nc1ccc2ncc(-c3cn[nH]c3)cc2n1
OUT: 100 to 1000 nM
